TEST_SYSTEM: human TLR9 (Homo sapiens (Human), UniProt Q9NR96)
Sequence (Q9NR96 26-1032): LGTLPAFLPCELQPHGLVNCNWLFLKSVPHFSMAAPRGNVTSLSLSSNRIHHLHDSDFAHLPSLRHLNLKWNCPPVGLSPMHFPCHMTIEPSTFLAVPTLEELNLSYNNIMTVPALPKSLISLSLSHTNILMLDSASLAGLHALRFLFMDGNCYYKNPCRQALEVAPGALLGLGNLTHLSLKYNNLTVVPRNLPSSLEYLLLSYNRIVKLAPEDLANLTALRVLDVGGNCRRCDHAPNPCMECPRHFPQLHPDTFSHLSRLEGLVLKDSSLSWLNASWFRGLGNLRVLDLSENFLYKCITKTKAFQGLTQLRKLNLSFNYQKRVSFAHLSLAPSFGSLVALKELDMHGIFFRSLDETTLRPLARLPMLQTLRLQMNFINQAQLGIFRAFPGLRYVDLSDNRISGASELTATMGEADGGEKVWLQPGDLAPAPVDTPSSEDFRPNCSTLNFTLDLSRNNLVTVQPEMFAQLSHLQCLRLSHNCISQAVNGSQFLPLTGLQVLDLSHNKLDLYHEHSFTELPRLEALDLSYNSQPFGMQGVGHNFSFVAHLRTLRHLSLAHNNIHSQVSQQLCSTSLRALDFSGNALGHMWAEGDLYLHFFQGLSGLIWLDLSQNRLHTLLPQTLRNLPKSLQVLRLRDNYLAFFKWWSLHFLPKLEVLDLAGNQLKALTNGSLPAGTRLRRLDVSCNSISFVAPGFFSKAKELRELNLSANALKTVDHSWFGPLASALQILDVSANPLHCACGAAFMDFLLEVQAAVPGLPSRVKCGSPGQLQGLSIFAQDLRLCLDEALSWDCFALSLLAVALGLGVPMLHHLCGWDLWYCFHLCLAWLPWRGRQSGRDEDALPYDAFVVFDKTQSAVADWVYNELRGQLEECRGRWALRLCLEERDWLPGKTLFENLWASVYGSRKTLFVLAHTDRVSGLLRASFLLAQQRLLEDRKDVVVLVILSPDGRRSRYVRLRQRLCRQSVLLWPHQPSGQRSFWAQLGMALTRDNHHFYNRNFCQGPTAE
ASSAY_NAME: TLR9 inhibition reporter assay (HEK-Blue SEAP);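 note: SEAP driven by IFN-β minimal promoter carrying five NF-κB and AP-1 sites, 22 h at 37 °C, compounds 0.05 nM–50 µM, inhibition scaled between agonist-plus-DMSO and reference-inhibitor wells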
RUN_PARAMETERS: read-out: TLR9 IC50; HEK-Blue cells overexpressing human TLR9, ODN2006 5 nM stimulation, SEAP reporter
Listed here: items and their measured IC50.
// return numeric value only (unit: nM, not printed)

In: For the compound CCN(C)C1CCN(c2ncc3[nH]c(-c4cc(OC)c5ncnn5c4)c(C(C)C)c3c2C)CC1 [Example 138] , report IC50.
Out: 1900

In: Note IC50 for the compound shown: COc1cc(-c2[nH]c3cnc(C4CCN(C5COC5)CC4)c(F)c3c2C(C)C)cn2ncnc12 [Example 38]
Out: 13100

In: // fetch IC50 given entry Cc1c(-c2[nH]c3cnc(C4CCNCC4)cc3c2C(C)C)cn2ncnc2c1C [Example 28]
Out: 608

In: Using the record for COc1cc(-c2[nH]c3cnc(C4CCN(C5COC5)CC4)cc3c2C(C)C)cn2ncnc12 [Example 306] , state its measured IC50.
Out: 786

====

TEST_SYSTEM: human TLR8 (Homo sapiens (Human))
ASSAY_NAME: TLR8 inhibition reporter assay (HEK-Blue SEAP)
RUN_PARAMETERS: read-out: TLR8 IC50; HEK-Blue cells overexpressing human TLR8; R848 15.9 μM stimulation; SEAP reporter
ATTRIBUTE_MEASURED: IC50 (nM)
Give the quantity in nM, number only.

{"columns": ["MOLECULE", "IC50, nM"],
 "data": [
  ["COc1cc(-c2[nH]c3cnc(C4CCC(NCC(C)(C)C)CC4)c(F)c3c2C(C)C)cn2ncnc12 (stereo not shown)", 4.2],
  ["Cc1c(-c2[nH]c3cnc(N4CCN(CC5CC5)C[C@H]4C)c(F)c3c2C(C)C)cn2ncnc2c1C", 0.54],
  ["COc1cc(-c2[nH]c3cnc(N4CCN(CCS(C)(=O)=O)C[C@H]4C)c(F)c3c2C(C)C)cn2ncnc12", 39],
  ["CNC(=O)CN(C)C1CCN(c2ncc3[nH]c(-c4cc(OC)c5ncnn5c4)c(C(C)C)c3c2F)CC1", 0.7],
  ["COCCN1CCN(c2ncc3[nH]c(-c4cn5ncnc5c(C)c4C)c(C(C)C)c3c2F)[C@H](C)C1", 0.92]
]}

In: Check the records and state IC50 for Cc1c(-c2[nH]c3cnc(C4CCC(N5CCC5)CC4)c(F)c3c2C(C)C)cn2ncnc2c1C (stereo not shown)
Out: 3.6

In: Look up and state reported IC50 for COc1cc(-c2[nH]c3cnc(C4CCC(NC5COC5)CC4)c(F)c3c2C(C)C)cn2ncnc12 (stereo not shown) [Example 224]
Out: 0.62

====

Reported IC50 values are given for each entry in this list.
TEST_SYSTEM: human TLR8 (Homo sapiens (Human), UniProt Q9NR97)
Sequence (Q9NR97 27-1041): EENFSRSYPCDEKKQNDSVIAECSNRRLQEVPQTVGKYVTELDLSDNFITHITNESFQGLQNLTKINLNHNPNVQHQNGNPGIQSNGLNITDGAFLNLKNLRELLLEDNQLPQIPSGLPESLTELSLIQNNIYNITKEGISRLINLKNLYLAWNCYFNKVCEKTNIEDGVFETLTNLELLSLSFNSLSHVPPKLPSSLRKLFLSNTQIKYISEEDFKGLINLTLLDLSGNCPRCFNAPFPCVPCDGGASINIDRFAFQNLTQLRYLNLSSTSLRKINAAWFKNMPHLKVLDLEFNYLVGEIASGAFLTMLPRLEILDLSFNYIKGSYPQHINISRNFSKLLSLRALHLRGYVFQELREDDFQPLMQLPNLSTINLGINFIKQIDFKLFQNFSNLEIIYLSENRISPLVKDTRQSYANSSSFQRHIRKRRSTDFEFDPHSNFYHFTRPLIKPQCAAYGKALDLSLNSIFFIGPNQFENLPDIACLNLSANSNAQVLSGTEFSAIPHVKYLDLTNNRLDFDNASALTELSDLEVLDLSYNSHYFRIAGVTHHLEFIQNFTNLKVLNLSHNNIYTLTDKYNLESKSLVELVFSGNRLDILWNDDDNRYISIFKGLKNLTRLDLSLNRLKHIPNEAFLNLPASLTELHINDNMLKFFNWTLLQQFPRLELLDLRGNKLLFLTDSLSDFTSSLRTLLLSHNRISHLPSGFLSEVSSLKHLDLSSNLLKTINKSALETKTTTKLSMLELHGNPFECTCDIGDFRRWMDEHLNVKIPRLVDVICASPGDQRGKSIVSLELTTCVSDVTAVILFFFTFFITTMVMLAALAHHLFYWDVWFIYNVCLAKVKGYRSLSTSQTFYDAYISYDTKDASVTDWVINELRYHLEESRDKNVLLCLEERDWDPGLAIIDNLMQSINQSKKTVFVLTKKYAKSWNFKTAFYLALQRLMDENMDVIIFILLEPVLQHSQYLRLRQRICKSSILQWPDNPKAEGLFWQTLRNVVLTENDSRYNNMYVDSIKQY
ASSAY_NAME: TLR8 inhibition reporter assay (HEK-Blue SEAP)
RUN_PARAMETERS: read-out: TLR8 IC50; HEK-Blue cells overexpressing human TLR8, R848 15.9 μM stimulation, SEAP reporter
Answer with a number only, understood to be in nM.

In: // fetch IC50 given entry Cc1c(-c2[nH]c3cnc(C4CCC(NC56CC(C5)C6)CC4)c(F)c3c2C(C)C)cn2ncnc2c1C (stereo not drawn) [Example 239]
Out: 2.6

====

TEST_SYSTEM: human TLR8 (Homo sapiens (Human), UniProt Q9NR97)
ASSAY_NAME: TLR8 inhibition reporter assay (HEK-Blue SEAP);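 note: SEAP driven by IFN-β minimal promoter with five NF-κB and AP-1 sites, compounds tested 0.05 nM to 50 µM, 22 h incubation, inhibition relative to agonist plus DMSO wells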
RUN_PARAMETERS: read-out: TLR8 IC50; HEK-Blue cells overexpressing human TLR8, R848 15.9 μM stimulation, SEAP reporter
ATTRIBUTE_MEASURED: pIC50
Give only the number. pIC50 is defined as minus log10 of concentration in molar units.

{"columns": ["COMPOUND", "TEST_SYSTEM", "pIC50"],
 "data": [
  ["COc1cc(-c2[nH]c3cnc(N4CCC(NC(C)C)CC4)c(C)c3c2C(C)C)cn2ncnc12", "human TLR8 (Homo sapiens (Human), UniProt Q9NR97)", 8.92],
  ["CCN1CCN(c2ncc3[nH]c(-c4cn5ncnc5c(C)c4C)c(C(C)C)c3c2F)CC1", "human TLR8 (Homo sapiens (Human), UniProt Q9NR97)", 9.49]
]}

In: Indicate its recorded pIC50; the compound in question is Cc1c(-c2[nH]c3cnc(N4CC5(CN(CC(F)(F)F)C5)C4)c(F)c3c2C(C)C)cn2ncnc2c1C
Out: 7.32

In: Supply recorded pIC50 for COc1cc(-c2[nH]c3cnc(C4CCN(CC(=O)N(C)C)CC4)cc3c2C(C)C)cn2ncnc12 here.
Out: 7.12

In: Supply reported pIC50 belonging to this compound: Cc1cc(-c2[nH]c3cnc(C4CCC(N(C)C(C)C)CC4)c(F)c3c2C(C)C)cn2ncnc12 (stereo not drawn) [Example 261]
Out: 8.96

In: Give pIC50 for the following compound: COc1cc(-c2[nH]c3cnc(N4CCN(CCS(C)(=O)=O)CC4)c(F)c3c2C(C)C)cn2ncnc12
Out: 8.40

In: Annotate the compound CCN(C)C1CCC(c2ncc3[nH]c(-c4cc(OC)c5ncnn5c4)c(C(C)C)c3c2C)CC1 (stereo not drawn) [Example 116] with its measured pIC50.
Out: 7.38

====

Reported IC50 values for a set of compounds
TEST_SYSTEM: UniProt:Q9NR96
ASSAY_NAME: TLR9 inhibition reporter assay (HEK-Blue SEAP)
RUN_PARAMETERS: read-out: TLR9 IC50; HEK-Blue cells overexpressing human TLR9, ODN2006 5 nM stimulation, SEAP reporter

{"columns": ["COMPOUND", "IC50"],
 "data": [
  ["Cc1c(-c2[nH]c3cnc(C4CCC(NCC(C)(C)C)CC4)cc3c2C(C)C)cn2ncnc2c1C (centres unmarked) [Example 337]", "777 nM"],
  ["Cc1c(-c2[nH]c3cnc(N4CCN(CC(N)=O)CC4)c(F)c3c2C(C)C)cn2ncnc2c1C", "> 50000 nM"],
  ["COc1cc(-c2[nH]c3cnc(C4CCNCC4)c(C)c3c2C(C)C)cn2ncnc12", "550 nM"]
]}

In the following, a different compound is considered.
In: Give me measured IC50, please, for this compound: COc1cc(-c2[nH]c3cnc(N4CCC(N5CC6(COC6)C5)CC4)c(F)c3c2C(C)C)cn2ncnc12
Out: 3010 nM

====

TEST_SYSTEM: human TLR9 (Homo sapiens (Human))
ASSAY_NAME: TLR9 inhibition reporter assay (HEK-Blue SEAP)
RUN_PARAMETERS: read-out: TLR9 IC50; HEK-Blue cells overexpressing human TLR9, ODN2006 5 nM stimulation, SEAP reporter
ATTRIBUTE_MEASURED: IC50
Give me the value, and tack the unit on after it.

// solved cases for IC50 follow
{"columns": ["COMPOUND", "ATTRIBUTE_MEASURED", "ASSAY_RESULT"],
 "data": [
  ["Cc1cc(-c2[nH]c3cnc(C4CCC(NC5COC5)CC4)c(F)c3c2C(C)C)cn2ncnc12 (stereo not shown) [Example 107]", "IC50", "2060 nM"],
  ["COc1cc(-c2[nH]c3cnc(N4CCC(NCC(=O)N(C)C)CC4)cc3c2C(C)C)cn2ncnc12 [Example 333]", "IC50", "1060 nM"],
  ["CNC(=O)CN1CCN(c2ncc3[nH]c(-c4cc(OC)c5ncnn5c4)c(C(C)C)c3c2C)CC1 [Example 40]", "IC50", "8310 nM"]
]}

Below: the item to evaluate.
In: Given COc1cc(-c2[nH]c3cnc(C4CCN(CC(=O)N(C)C)CC4)c(C)c3c2C(C)C)cn2ncnc12 [Example 24] , respond with its IC50.
Out: 279 nM

====

TEST_SYSTEM: human TLR8 (Homo sapiens (Human))
ASSAY_NAME: TLR8 inhibition reporter assay (HEK-Blue SEAP)
RUN_PARAMETERS: read-out: TLR8 IC50; HEK-Blue cells overexpressing human TLR8, R848 15.9 μM stimulation, SEAP reporter
ATTRIBUTE_MEASURED: pIC50
In plain terms, pIC50 is the concentration in mol/L turned into minus its base-10 logarithm.

In: Identify pIC50 associated with the molecule COc1cc(-c2[nH]c3cnc(N4CCN(CC(F)(F)F)CC4)c(F)c3c2C(C)C)cn2ncnc12
Out: 7.41

In: Please report the measured pIC50 for Cc1cc(-c2[nH]c3cnc(C4CCC(N5CCC5)CC4)c(F)c3c2C(C)C)cn2ncnc12 (stereo not drawn) [Example 109]
Out: 8.77

In: # return recorded pIC50 for entry Cc1c(-c2[nH]c3cnc(N4CCC(NC5COC5)CC4)c(C)c3c2C(C)C)cn2ncnc2c1C
Out: 9.02
